Values compiled from patent US20210155689A1.

Target: T1, human LAG-3 on cells (HEK293-hLAG-3 stable cell line) (human, UniProt P18627 23-525)
T1 sequence: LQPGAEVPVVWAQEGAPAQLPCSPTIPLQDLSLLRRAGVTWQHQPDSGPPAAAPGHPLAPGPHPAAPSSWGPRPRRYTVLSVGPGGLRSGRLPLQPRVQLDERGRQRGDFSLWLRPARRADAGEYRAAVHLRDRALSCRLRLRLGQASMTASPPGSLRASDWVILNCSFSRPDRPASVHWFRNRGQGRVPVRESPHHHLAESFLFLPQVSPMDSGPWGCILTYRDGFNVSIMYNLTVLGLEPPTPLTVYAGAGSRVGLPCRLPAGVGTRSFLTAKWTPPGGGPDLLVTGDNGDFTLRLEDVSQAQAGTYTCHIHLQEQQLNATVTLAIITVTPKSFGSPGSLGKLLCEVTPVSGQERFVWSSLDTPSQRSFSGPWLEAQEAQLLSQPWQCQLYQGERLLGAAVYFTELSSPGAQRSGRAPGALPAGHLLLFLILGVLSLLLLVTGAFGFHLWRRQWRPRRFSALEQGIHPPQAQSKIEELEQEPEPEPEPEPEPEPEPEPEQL
Experiment: FACS, HEK293-hLAG-3, antibody 40 nM
Please go through the items and note down their Mean fluorescence intensity.
The response must contain the number and no unit.

Recorded result, 556F6B8-1 humanized antibody (antibody, V domains shown) VH: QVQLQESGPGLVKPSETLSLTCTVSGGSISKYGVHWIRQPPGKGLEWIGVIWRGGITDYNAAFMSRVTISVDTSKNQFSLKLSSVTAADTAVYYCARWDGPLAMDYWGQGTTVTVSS VL: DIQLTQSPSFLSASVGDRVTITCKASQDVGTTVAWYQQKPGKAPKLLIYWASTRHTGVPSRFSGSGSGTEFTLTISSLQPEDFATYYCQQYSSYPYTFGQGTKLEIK , Mean fluorescence intensity: 33

Recorded result, 556F6B8 mouse-human chimeric antibody (antibody, V domains shown, also called mAb123-556F6B8; 556F8B8) VH: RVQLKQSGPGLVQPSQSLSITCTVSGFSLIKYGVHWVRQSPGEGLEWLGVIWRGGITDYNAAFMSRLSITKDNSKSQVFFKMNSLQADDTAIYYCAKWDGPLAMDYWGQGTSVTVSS VL: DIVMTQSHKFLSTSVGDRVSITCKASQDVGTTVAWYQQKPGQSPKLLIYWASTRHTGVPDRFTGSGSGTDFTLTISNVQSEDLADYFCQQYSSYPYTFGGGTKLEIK , Mean fluorescence intensity: 96

Recorded result, 556F6B8-3 humanized antibody (antibody, V domains shown) VH: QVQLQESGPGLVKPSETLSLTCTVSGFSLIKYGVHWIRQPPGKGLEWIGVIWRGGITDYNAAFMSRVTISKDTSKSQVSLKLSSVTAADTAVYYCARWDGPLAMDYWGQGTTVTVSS VL: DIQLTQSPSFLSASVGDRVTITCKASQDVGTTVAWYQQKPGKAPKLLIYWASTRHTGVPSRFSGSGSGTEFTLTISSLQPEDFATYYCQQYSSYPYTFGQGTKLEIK , Mean fluorescence intensity: 98
